- tested_system: JAK1 (wild type constructs) (Homo sapiens)
- Sequence (P23458 862-1154 limits assumed): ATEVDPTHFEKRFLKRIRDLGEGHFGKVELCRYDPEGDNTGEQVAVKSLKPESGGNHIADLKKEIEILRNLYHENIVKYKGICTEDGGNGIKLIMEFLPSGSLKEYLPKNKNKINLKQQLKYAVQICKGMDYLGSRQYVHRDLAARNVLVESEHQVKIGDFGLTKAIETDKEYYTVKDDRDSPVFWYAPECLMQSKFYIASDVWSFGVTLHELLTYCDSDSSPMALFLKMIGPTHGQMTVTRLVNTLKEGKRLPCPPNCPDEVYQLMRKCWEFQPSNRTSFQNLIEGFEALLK
- experiment_notes: Kinase assay with titration of itacitinib (γ-32P-ATP, STAT5b peptide)
- measurement_conditions: all wild type constructs (kinase domain, pseudokinase-kinase, full length); Ki=IC50/(1+S/KM)
- Protocol: To our knowledge, it is unknown whether small-molecule JAK inhibitors bind the wild-type and mutant forms of the enzyme with equal affinity. Therefore, the inhibition constant (Ki) for Itacitinib was determined. JAK1 activity was measured by kinase assay in the presence of increasing concentrations of Itacitinib. The 10 µL reaction mix contained 0.5 µL 20× Kinase Assay Buffer, 1 µCi γ-^32P-ATP and varying concentrations of ATP, STAT5b peptide, and inhibitor, as described for each experiment. […]
pKi: −log10 of the molar value.
assay_endpoint: pKi

# input compound: N#CCC1(n2cc(-c3ncnc4[nH]ccc34)cn2)CN(C2CCN(C(=O)c3ccnc(C(F)(F)F)c3F)CC2)C1 ; wanted: its pKi
8.70 to 9.30

* * *

- tested_system: JAK1 V658F (Homo sapiens, UniProt P23458, V658F)
- Sequence (P23458 25-1154 V658F): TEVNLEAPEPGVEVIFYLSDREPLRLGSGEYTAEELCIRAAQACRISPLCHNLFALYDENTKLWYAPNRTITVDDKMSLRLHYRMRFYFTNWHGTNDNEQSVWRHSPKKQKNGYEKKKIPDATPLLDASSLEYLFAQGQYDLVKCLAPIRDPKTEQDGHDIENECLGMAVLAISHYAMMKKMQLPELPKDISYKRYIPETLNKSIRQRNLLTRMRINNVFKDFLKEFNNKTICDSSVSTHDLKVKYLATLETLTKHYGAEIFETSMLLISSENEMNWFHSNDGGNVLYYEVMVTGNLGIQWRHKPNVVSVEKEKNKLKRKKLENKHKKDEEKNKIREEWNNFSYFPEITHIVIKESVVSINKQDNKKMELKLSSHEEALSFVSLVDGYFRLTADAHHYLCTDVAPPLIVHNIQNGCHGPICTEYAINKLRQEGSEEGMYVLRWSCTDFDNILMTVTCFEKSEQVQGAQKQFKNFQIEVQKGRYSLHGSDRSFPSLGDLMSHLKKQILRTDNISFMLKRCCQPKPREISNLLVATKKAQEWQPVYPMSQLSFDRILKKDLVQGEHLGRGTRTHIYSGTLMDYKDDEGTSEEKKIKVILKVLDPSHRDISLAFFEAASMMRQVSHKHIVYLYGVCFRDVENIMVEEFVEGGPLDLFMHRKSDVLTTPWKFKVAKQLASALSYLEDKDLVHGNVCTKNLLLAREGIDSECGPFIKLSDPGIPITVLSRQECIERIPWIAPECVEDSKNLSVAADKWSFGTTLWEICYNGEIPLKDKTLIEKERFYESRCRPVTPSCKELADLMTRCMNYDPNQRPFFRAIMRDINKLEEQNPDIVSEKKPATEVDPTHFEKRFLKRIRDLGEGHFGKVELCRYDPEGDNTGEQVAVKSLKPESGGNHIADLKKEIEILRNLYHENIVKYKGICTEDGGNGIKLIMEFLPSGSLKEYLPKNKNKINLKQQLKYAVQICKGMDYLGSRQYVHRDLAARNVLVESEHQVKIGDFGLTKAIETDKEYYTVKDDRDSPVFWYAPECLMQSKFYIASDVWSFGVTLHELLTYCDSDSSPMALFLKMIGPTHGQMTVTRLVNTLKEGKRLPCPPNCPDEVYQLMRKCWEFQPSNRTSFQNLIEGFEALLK
- experiment_notes: Kinase assay with titration of itacitinib (γ-32P-ATP, STAT5b peptide)
- measurement_conditions: V658F constructs (pseudokinase-kinase, full length); Ki=IC50/(1+S/KM)
pKi: −log10 of the molar value.
assay_endpoint: pKi

Param readout = pKi; param system = JAK1 V658F (Homo sapiens, UniProt P23458, V658F); param query = N#CCC1(n2cc(-c3ncnc4[nH]ccc34)cn2)CN(C2CCN(C(=O)c3ccnc(C(F)(F)F)c3F)CC2)C1 ; response: value
8.70 to 9.30

src = paper PMC6896158
